These measurements were taken from ChEMBL document CHEMBL1140018.

# assay-procedure: Tmax in mouse at 10 mg/kg, po
# Assay type: ADME, organism-based
# Set-up: dose 10 mg/kg, route oral
# condition-notes: in vivo
metric: Tmax (min)

P. CNc1nc2cc(-c3cccc(CCNCC(N)=O)c3)sc2n2c(C)cnc12
Q. CCNC(=O)C(N)Cc1cccc(-c2cc3nc(NC)c4ncc(C)n4c3s2)c1 (racemic)
Could you tell me which of these two has the smaller Tmax figure? First: P Second: Q Refer to your chosen entry by its label in the reply. Q

P. CNc1nc2cc(-c3cccc(CNS(N)(=O)=O)c3)sc2n2c(C)cnc12
Q. Cc1ccc2nc(NCCN)c3ncc(C)n3c2c1 [BMS-345541]
Thinking about recorded Tmax values, which is higher, P or Q ? Refer to your chosen entry by its label in the reply. P
(P: 60 min, Q: 30 min)

====

Hi! I'm sharing some pIC50 results obtained with Inhibitor of nuclear factor kappa-B kinase subunit beta (Homo sapiens, UniProt O14920).
Sequence (O14920 whole entry): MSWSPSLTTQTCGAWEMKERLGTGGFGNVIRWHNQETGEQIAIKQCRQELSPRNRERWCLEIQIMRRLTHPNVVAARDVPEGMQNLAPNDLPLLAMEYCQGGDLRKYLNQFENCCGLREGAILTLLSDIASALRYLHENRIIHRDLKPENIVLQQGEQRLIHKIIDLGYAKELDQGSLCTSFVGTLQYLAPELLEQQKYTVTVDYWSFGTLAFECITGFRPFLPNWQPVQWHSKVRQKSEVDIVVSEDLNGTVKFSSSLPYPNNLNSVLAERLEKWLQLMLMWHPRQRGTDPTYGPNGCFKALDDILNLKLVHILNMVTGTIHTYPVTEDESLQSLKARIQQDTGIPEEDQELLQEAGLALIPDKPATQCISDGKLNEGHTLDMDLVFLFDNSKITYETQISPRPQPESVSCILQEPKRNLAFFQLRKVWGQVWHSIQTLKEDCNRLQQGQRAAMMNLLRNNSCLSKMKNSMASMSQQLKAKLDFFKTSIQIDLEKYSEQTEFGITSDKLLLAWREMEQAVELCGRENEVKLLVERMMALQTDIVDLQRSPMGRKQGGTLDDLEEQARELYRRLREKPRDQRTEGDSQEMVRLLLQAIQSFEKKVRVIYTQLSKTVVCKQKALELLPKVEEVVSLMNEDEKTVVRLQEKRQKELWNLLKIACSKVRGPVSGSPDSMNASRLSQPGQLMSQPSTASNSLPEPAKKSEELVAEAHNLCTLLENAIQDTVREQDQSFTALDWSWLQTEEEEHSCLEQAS
pIC50: −log10 of the molar value.
metric: pIC50

a. Cc1cnc2c(NCCN(C)C)nc3cc(-c4ccccc4)sc3n12
b. CNc1nc2cc(-c3cccc(CNCC(N)=O)c3)sc2n2c(C)cnc12
c. CCNC(=O)C(N)Cc1cccc(-c2cc3nc(NC)c4ncc(C)n4c3s2)c1 (racemic)
Please rank everything listed above by pIC50, with the minimum value first. Record the ranking as a list of labels in the requested order. c, a, b
(c: 6.23, a: 7.02, b: 7.64)

P. Cc1cnc2c(NCCO)nc3cc(-c4ccccc4)sc3n12
Q. Cc1cnc2c(NCC(N)=O)nc3cc(-c4ccccc4)sc3n12
R. Cc1cnc2c(NCCN)nc3ccsc3n12
S. CNc1nc2cc(-c3cccc(CCN)c3)sc2n2c(C)cnc12
Put the items in sequence by pIC50, from largest down. Record the ranking as a list of labels in the requested order. S, P, R, Q
(S: 7.35, P: 7.07, R: 6.77, Q: 6.44)

I. Cc1cnc2c(NCCN)nc3cc(C4=NCN=C4)sc3n12
II. Cc1cnc2c(NCCN)nc3cc(-c4cccc(CCO)c4)sc3n12
Could you tell me which of these two has the smaller pIC50 figure? First: I Second: II Refer to your chosen entry by its label in the reply. I
(I: 6.35, II: 7.68)

1. CNc1nc2cc(-c3cccc(CCNC(N)=O)c3)sc2n2c(C)cnc12
2. Cc1cnc2c(NCCN)nc3cc(-c4ccccn4)sc3n12
Could you tell me which of these two has the smaller pIC50 figure? First: 1 Second: 2 Refer to your chosen entry by its label in the reply. 2
(2: 6.72, 1: 7.74)

A. CNc1nc2cc(-c3cccc(CCNCC(N)=O)c3)sc2n2c(C)cnc12
B. CCNc1nc2cc(-c3ccccc3)sc2n2c(C)cnc12
C. CNC(=O)C(N)Cc1cccc(-c2cc3nc(NC)c4ncc(C)n4c3s2)c1 (racemic)
Put the items in sequence by pIC50, from largest down. Record the ranking as a list of labels in the requested order. A, C, B

====

# Tested on: Jurkat
# assay-procedure: Inhibition of TNF-alpha-induced response in Jurkat cells
# condition-notes: Homo sapiens
pEC50: −log10 of the molar value.
metric: pEC50

Illustrative cases are given below, each with its answer.
molecule	test-target	pEC50
CCNc1nc2cc(-c3ccccc3)sc2n2c(C)cnc12	Jurkat	5.24
CNC(=O)CNCCc1cccc(-c2cc3nc(NC)c4ncc(C)n4c3s2)c1	Jurkat	5.72
CC(=O)NCCNc1nc2cc(-c3ccccc3)sc2n2c(C)cnc12	Jurkat	4.99
CCNC(=O)C(N)Cc1cccc(-c2cc3nc(NC)c4ncc(C)n4c3s2)c1 (racemic)	Jurkat	5.98
Cc1cnc2c(NCCN)nc3cc(-c4ccc[nH]4)sc3n12	Jurkat	5.10
Cc1cnc2c(NCCN)nc3cc(-c4ccncc4)sc3n12	Jurkat	4.22

A. Cc1cnc2c(NCCN)nc3cc(-c4cccnc4)sc3n12
B. CNc1nc2cc(-c3cccc(CCNC(N)=O)c3)sc2n2c(C)cnc12
C. Cc1cnc2c(NCCN3CCCCC3)nc3cc(-c4ccccc4)sc3n12
D. Cc1cnc2c(NCCN)nc3cc(-c4cccc(CO)c4)sc3n12
Arrange these 4 molecules in increasing order of pEC50. Record the ranking as a list of labels in the requested order. A, C, D, B
(A: 4.53, C: 4.87, D: 5.62, B: 6.26)

====

# test-target: Inhibitor of nuclear factor kappa-B kinase subunit beta (Homo sapiens)
metric: IC50 (nM)

Illustrative cases are given below, each with its answer.
compound	metric	units	observed-measurement
CNc1nc2cc(-c3cccc(C[C@@H](N)C(N)=O)c3)sc2n2c(C)cnc12	IC50	nM	27
CNc1nc2ccsc2n2c(C)cnc12	IC50	nM	520
Cc1cnc2c(NCCN)nc3cc(-c4cccc(CO)c4)sc3n12	IC50	nM	8
Cc1cnc2c(NCCN)nc3cc(-c4ccccc4)sc3n12	IC50	nM	22
CNc1nc2cc(-c3cccc(C(=O)O)c3)sc2n2c(C)cnc12	IC50	nM	190

a. CNc1nc2cc(-c3ccccc3)sc2n2c(C)cnc12
b. CC(=O)NCCNc1nc2cc(-c3ccccc3)sc2n2c(C)cnc12
c. COc1ccc(-c2cc3nc(NCCN)c4ncc(C)n4c3s2)cc1
d. CNc1nc2cc(C)sc2n2c(C)cnc12
e. CNc1nc2cc(-c3cccc(CC(N)=O)c3)sc2n2c(C)cnc12
Put the items in sequence by IC50, from largest down. Record the ranking as a list of labels in the requested order. d, b, c, a, e
(d: 490 nM, b: 290 nM, c: 95 nM, a: 27 nM, e: 8 nM)

A. Cc1cnc2c(NCCN)nc3cc(-c4ccccc4CO)sc3n12
B. Cc1cnc2c(NCCN3CCCCC3)nc3cc(-c4ccccc4)sc3n12
C. CNc1nc2cc(-c3cccc(C[C@H](N)C(N)=O)c3)sc2n2c(C)cnc12
Put the items in sequence by IC50, from largest down. Record the ranking as a list of labels in the requested order. A, B, C

====

# assay-procedure: Cytotoxicity against Jurkat cells by Alamar blue assay
# condition-notes: human, Jurkat cells
CC50 overview
Numbers only; they are read as µM.

Illustrative cases are given below, each with its answer.
compound	metric	observed-measurement
Cc1ccc2nc(NCCN)c3ncc(C)n3c2c1 [BMS-345541]	CC50	100
Cc1cnc2c(NCCN)nc3cc(-c4cccc(CCO)c4)sc3n12	CC50	13

Requested field: CC50. Item: COc1ccccc1-c1cc2nc(NCCN)c3ncc(C)n3c2s1 3.5

Then this compound: CNc1nc2cc(-c3cccc(CN)c3)sc2n2c(C)cnc12 19

Then this compound: Cc1cnc2c(NCCN)nc3cc(C4=NCN=C4)sc3n12 38

Then this compound: Cc1cnc2c(NCCN)nc3cc(-c4cccnc4)sc3n12 49

Then this compound: COc1cccc(-c2cc3nc(NCCN)c4ncc(C)n4c3s2)c1 3.5

Then this compound: CNc1nc2cc(-c3cccc(CCN)c3)sc2n2c(C)cnc12 21

Then this compound: Cc1cnc2c(NCCN3CCCCC3)nc3cc(-c4ccccc4)sc3n12 15

Then this compound: Cc1cnc2c(NCCN)nc3cc(-c4ccc(CO)cc4)sc3n12 14

Then this compound: CCNC(=O)C(N)Cc1cccc(-c2cc3nc(NC)c4ncc(C)n4c3s2)c1 (racemic) 71

Then this compound: Cc1cnc2c(NCCN)nc3cc(-c4ccccn4)sc3n12 13

====

# System: Jurkat
# assay-procedure: Inhibition of TNF-alpha-induced response in Jurkat cells
# condition-notes: Homo sapiens
metric: EC50 (µM)

Illustrative cases are given below, each with its answer.
compound	observed-measurement
Cc1cnc2c(NCCN)nc3cc(-c4ccoc4)sc3n12	4.53
CNc1nc2cc(-c3cccc(CCN)c3)sc2n2c(C)cnc12	6.73
CNc1nc2cc(-c3cccc(CCC(N)=O)c3)sc2n2c(C)cnc12	0.81
CNc1nc2cc(-c3cccc(CNC(N)=O)c3)sc2n2c(C)cnc12	0.34
CNC(=O)C(N)Cc1cccc(-c2cc3nc(NC)c4ncc(C)n4c3s2)c1 (racemic)	0.47

A. CNc1nc2cc(-c3cccc(CCC(=O)O)c3)sc2n2c(C)cnc12
B. CNc1nc2cc(-c3cccc(CNCC(N)=O)c3)sc2n2c(C)cnc12
C. CNc1nc2cc(-c3cccc(CNS(N)(=O)=O)c3)sc2n2c(C)cnc12
Put the items in sequence by EC50, from largest down. Record the ranking as a list of labels in the requested order. A, B, C

1. Cc1ccc2nc(NCCN)c3ncc(C)n3c2c1 [BMS-345541]
2. CNc1nc2cc(-c3cccc(CCNS(N)(=O)=O)c3)sc2n2c(C)cnc12
3. CNc1nc2cc(-c3cccc(C[C@H](N)C(N)=O)c3)sc2n2c(C)cnc12
4. CNc1nc2cc(-c3cccc(C(=O)O)c3)sc2n2c(C)cnc12
5. CNc1nc2cc(-c3cccc(CCNCC(N)=O)c3)sc2n2c(C)cnc12
Arrange these 5 compounds in increasing order of EC50. Record the ranking as a list of labels in the requested order. 3, 2, 5, 1, 4
(3: 0.45 µM, 2: 0.92 µM, 5: 1.81 µM, 1: 13.3 µM, 4: 65.7 µM)
